Target: T1, recombinant human endotrophin (77 amino acids at the carboxy-terminal of the COL6α3 chain, HEK293-expressed, … (human, UniProt P12111 3101-3177))
T1 construct: the His-tag was removed by enterokinase, leaving the 77 amino acid endotrophin free of tags; also called ETP; recombinant endotrophin protein
T1 sequence (P12111 3101-3177 limits assumed): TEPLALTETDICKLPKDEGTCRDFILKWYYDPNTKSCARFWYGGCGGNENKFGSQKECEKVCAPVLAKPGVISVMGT
Assay: BLI (Octet RED96), antibody on protein A biosensors, endotrophin 0.1-200 nM, 1:1 fit
Measured koff, listed per entry for reference.
Hi! Could you send only the number? It should be in s⁻¹, unit omitted.

QUERY: Could you share which koff value was measured for ETP-mAb4.2 (humanized ETP-hMab4) (antibody, human IgG1, V domains shown, also called ENT-hMab4.2) VH: EVQLLESGGGLVQPGGSLRLSCAASGFSFSSGYYICWVRQAPGKGLEWIACIYGGNSNPYYANWVNGRFTISRDNSKNTLYLQMNSLRAEDTAVYYCARKDINIGGAYELWGQGTLVTVSS VL: DIQMTQSPSSLSASVGDRVTITCQASQSISSSYLSWYQQKPGKAPKLLIYKASTLASGVPSRFSGSGSGTDFTLTISSLQPEDFATYYCQYSDWANSYGNAFGGGTKVEIK ?
RESULT: 0.000305

QUERY: Could you share which koff value was measured for ETP-mAb4.1 (humanized ETP-hMab4) (antibody, human IgG1, V domains shown, Humanized; tied by the number 4.1; also called ENT-hMab4.1) VH: EVQLLESGGGLVQPGGSLRLSCAASGFSFSSGYYICWVRQAPGKGLEWIACIYGGNNNPYYANWVNGRFTISRDNSKNTLYLQMNSLRAEDTAVYYCARKDINIGGAYELWGQGTLVTVSS VL: DIQMTQSPSSLSASVGDRVTITCQASQSISSSYLSWYQQKPGKAPKLLIYKASTLASGVPSRFSGSGSGTDFTLTISSLQPEDFATYYCQYSDWANSYGNAFGGGTKVEIK ?
RESULT: 0.000235

QUERY: Could you share which koff value was measured for ETP-mAb4.5 (humanized ETP-hMab4) (antibody, human IgG1, V domains shown, also called ENT-hMab4.5) VH: EVQLLESGGGLVQPGGSLRLSCAASGFTFSSGYYICWVRQAPGKGLEWIACIYGGNSNPYYANWVNGRFTISRDNSKNTLYLQMNSLRAEDTAVYYCARKDINIGGAYELWGQGTLVTVSS VL: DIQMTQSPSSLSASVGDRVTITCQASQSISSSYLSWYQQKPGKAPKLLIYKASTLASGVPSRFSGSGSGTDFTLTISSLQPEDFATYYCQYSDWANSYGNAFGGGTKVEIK ?
RESULT: 0.000223

Continuing:
QUERY: Could you share which koff value was measured for ETP-mAb4 (antibody, V domains shown, Rabbit monoclonal; also called parental rabbit ETPmAb4) VH: SSRVKESGGDLVKPGASLTLTCKASGFSFSSGYYICWVRQAPGKGLEWIACIYGGNNNPYYANWVNGRFTTSKTSSTTVTLQMTNLTGADTATYFCARKDINIGGAYELWGPGTLVTISS VL: ELVMTQTPASVSEPVGGTVTINCQASQSISSSYLSWYQQKPGQPPKLLIYKASTLASGVPSRFKGSGSGTQFSLTISDLECADAATYYCQYSDWANSYGNAFGGGTEVVVK ?
RESULT: 0.000249

QUERY: Could you share which koff value was measured for ETP-mAb4.4 (humanized ETP-hMab4) (antibody, human IgG1, V domains shown, also called ENT-hMab4.4) VH: EVQLLESGGGLVQPGGSLRLSCAASGFSFSSGYYICWVRQAPGKGLEWIACIYGGNNNPYYANWVNGRFTTSRDNSKNTLYLQMNSLRAEDTAVYYCARKDINIGGAYELWGQGTLVTVSS VL: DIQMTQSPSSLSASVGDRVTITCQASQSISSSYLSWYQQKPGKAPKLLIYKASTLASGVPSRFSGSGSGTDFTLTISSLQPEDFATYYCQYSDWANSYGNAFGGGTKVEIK ?
RESULT: 0.000328

These data points were gathered from patent US20220056124A1.
